System: MRSA SA86
Format: cell-based, Staphylococcus aureus
Protocol: Susceptibility to teixobactin and its analogues was tested on the selected Gram-positive strains using Tecan Freedom EVO high-throughput automated platform, following the standard broth dilution method as described by the Clinical and Laboratory Standards Institute ^3. MICS were determined according to CLSI guideline.
property_measured: Minimum inhibitory concentration (MIC) MRSA SA86 (µg/mL)

{"compound": "CC[C@@H](C)[C@@H](NC(=O)[C@@H](CCC(N)=O)NC(=O)[C@H](CO)NC(=O)[C@@H](NC(=O)[C@@H](Cc1ccccc1)NC)[C@@H](C)CC)C(=O)N[C@H](C(=O)N[C@@H](CO)C(=O)N[C@H]1C(=O)N[C@@H](C)C(=O)N[C@@H]([C@@H](C)CC)C(=O)N[C@@H]([C@@H](C)CC)C(=O)N[C@H]1C)[C@@H](C)CC [T84]", "result_value": 1}
{"compound": "CC[C@@H](C)[C@@H](NC(=O)[C@@H](CCC(N)=O)NC(=O)[C@@H](NC(=O)[C@@H](NC(=O)[C@@H](Cc1ccccc1)NC)[C@@H](C)CC)[C@@H](C)CC)C(=O)N[C@H](C(=O)N[C@@H](CO)C(=O)N[C@H]1C(=O)N[C@@H](C)C(=O)N[C@@H](C2CCCCC2)C(=O)N[C@@H]([C@@H](C)CC)C(=O)O[C@H]1C)[C@@H](C)CC [T88]", "result_value": 4}
{"compound": "CC[C@@H](C)[C@@H](NC(=O)[C@@H](CCC(N)=O)NC(=O)[C@H](CCCNC(=N)N)NC(=O)[C@@H](NC(=O)[C@@H](Cc1ccccc1)NC)[C@@H](C)CC)C(=O)N[C@H](C(=O)N[C@@H](CO)C(=O)N[C@H]1C(=O)N[C@@H](C)C(=O)N[C@@H](C2CCCCC2)C(=O)N[C@@H]([C@@H](C)CC)C(=O)O[C@H]1C)[C@@H](C)CC [T87]", "result_value": 2}

====

System: MRSA SA86
Type: cell-based, Staphylococcus aureus
property_measured: Minimum inhibitory concentration (MIC) MRSA SA86 (µg/mL)

{"compound": "CC[C@@H](C)[C@@H](NC(=O)[C@@H](CCC(N)=O)NC(=O)[C@H](CO)NC(=O)[C@@H](NC(=O)[C@@H](Cc1ccccc1)NC)[C@@H](C)CC)C(=O)N[C@H](C(=O)N[C@@H](CO)C(=O)N[C@H]1C(=O)N[C@@H](C)C(=O)N[C@@H](CCSC)C(=O)N[C@@H]([C@@H](C)CC)C(=O)N[C@H]1C)[C@@H](C)CC [T86]", "unit_of_measurement": "µg/mL", "result_value": 2}
{"compound": "CCC[C@@H]1NC(=O)[C@H](C)NC(=O)[C@H](NC(=O)[C@H](CO)NC(=O)[C@@H](NC(=O)[C@H](NC(=O)[C@@H](CCC(N)=O)NC(=O)[C@H](CO)NC(=O)[C@@H](NC(=O)[C@@H](Cc2ccccc2)NC)[C@@H](C)CC)[C@H](C)CC)[C@@H](C)CC)[C@H](C)NC(=O)[C@H]([C@@H](C)CC)NC1=O [T85]", "unit_of_measurement": "µg/mL", "result_value": 2}
{"compound": "CC[C@@H](C)[C@@H](NC(=O)[C@@H](CCC(N)=O)NC(=O)[C@H](CO)NC(=O)[C@@H](NC(=O)[C@@H](Cc1ccccc1)NC)[C@@H](C)CC)C(=O)N[C@H](C(=O)N[C@@H](CO)C(=O)N[C@H]1C(=O)N[C@@H](C)C(=O)N[C@@H](C2CCCCC2)C(=O)N[C@@H]([C@@H](C)CC)C(=O)N[C@H]1C)[C@@H](C)CC [T83]", "unit_of_measurement": "µg/mL", "result_value": 1}
